target: androgen receptor (hAR) (Homo sapiens (Human), UniProt P10275); experiment: Test of transcriptional activity (hAR / ARE-Luc dual-luciferase assay in CHO cells); type: cell-based; details: EC50 [nM] (mean ± SE), CHO cells with hAR and ARE-Luc, 24 hours; 10 nM DHT = 100%
Sequence (P10275 whole entry): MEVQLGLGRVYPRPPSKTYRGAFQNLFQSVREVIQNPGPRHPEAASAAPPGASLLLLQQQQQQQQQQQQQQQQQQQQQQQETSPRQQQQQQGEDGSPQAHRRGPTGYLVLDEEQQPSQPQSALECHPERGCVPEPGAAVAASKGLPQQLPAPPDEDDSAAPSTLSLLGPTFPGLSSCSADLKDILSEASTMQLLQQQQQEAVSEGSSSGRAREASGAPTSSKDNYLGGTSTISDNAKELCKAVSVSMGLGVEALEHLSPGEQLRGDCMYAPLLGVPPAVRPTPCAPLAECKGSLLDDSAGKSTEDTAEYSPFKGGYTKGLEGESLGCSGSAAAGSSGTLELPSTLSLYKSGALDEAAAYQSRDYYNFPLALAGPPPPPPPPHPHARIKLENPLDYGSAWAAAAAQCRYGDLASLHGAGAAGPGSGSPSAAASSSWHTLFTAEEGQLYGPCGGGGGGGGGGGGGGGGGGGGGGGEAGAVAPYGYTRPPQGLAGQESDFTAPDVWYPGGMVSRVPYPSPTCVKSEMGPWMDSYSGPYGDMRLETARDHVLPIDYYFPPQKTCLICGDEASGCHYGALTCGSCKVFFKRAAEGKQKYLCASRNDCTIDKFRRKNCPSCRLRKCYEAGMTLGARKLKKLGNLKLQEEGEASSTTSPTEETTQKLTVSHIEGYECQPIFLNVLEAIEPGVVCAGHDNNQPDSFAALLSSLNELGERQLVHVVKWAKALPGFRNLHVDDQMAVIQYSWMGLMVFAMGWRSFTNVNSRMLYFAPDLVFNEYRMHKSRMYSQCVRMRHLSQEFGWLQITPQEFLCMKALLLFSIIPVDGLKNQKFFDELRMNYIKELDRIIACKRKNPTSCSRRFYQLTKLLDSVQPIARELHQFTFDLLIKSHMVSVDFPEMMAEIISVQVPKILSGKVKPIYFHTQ
Response field label takes met when EC50 is strictly below 40 nM and not met in all other cases.

stdin: # check: EC50 < 40 nM for N#Cc1ccc(N2C[C@@H](C(=O)Nc3ccc([N+](=O)[O-])cc3Cl)O[C@@H]2C(F)(F)F)cc1C(F)(F)F
stdout: not met

stdin: Then this compound: N#Cc1ccc(N2C[C@@H](C(=O)Nc3ccnc(Cl)c3)O[C@@H]2C(F)(F)F)cc1C(F)(F)F
stdout: met

stdin: Then this compound: Cc1c(N2C[C@@H](COc3ccc(C#N)cc3)O[C@H]2C(F)(F)F)ccc(C#N)c1Cl
stdout: not met

stdin: Then this compound: Cc1c(N2C[C@@H](COc3ccc(C#N)cc3)O[C@@H]2C(F)(F)F)ccc(C#N)c1Cl
stdout: met

stdin: Then this compound: N#Cc1ccc(OC[C@@H]2CN(c3ccc(C#N)c(Cl)c3)[C@@H](C(F)(F)F)O2)cn1
stdout: met

stdin: Then this compound: N#Cc1ccc(NC(=O)[C@@H]2CN(c3ccc(C#N)c(C(F)(F)F)c3)[C@@H](C(F)(F)F)O2)cn1
stdout: met

stdin: Then this compound: CN(C)C(=O)Nc1ccc(OC[C@@H]2CN(c3ccc(C#N)c(C(F)(F)F)c3)[C@@H](C(F)(F)F)O2)cc1
stdout: not met

* * *

target: UniProt:P10275; assay: Test of transcriptional activity (hAR / ARE-Luc dual-luciferase assay in CHO cells); assay type: cell-based; conditions: CHO cells with hAR and ARE-Luc, 24 hours; 10 nM DHT = 100%; read-out: EC50 [nM] (mean ± SE)
readout.name: log10 EC50 (log10 of the value in nM)
Hey, these are logged values: log10 of EC50, nM being the unit before logging.

stdin: Which value of log10 EC50 has been reported for O=[N+]([O-])c1ccc(N2C[C@@H](COc3ccncc3)O[C@@H]2C(F)(F)F)cc1C(F)(F)F [Example 66] in the records?
stdout: 1.30

stdin: Then this compound: N#Cc1ccc(OC[C@@H]2CN(c3ccc(Cl)c(Cl)c3)[C@@H](C(F)(F)F)O2)cc1 [Example 63]
stdout: 1.56

stdin: Then this compound: N#Cc1ccc(OC[C@@H]2CN(c3ccc([N+](=O)[O-])c(C(F)(F)F)c3)[C@@H](C(F)(F)F)O2)cc1 [Example 64]
stdout: 1.53

stdin: Then this compound: Cc1cc(N2C[C@@H](COc3ccc(C#N)cc3)O[C@H]2C(F)(F)F)ccc1[N+](=O)[O-] [Example 82]
stdout: 1.32

stdin: Then this compound: COC(=O)N1CCN(C(=O)[C@@H]2CN(c3ccc([N+](=O)[O-])c(C)c3)[C@@H](C(F)(F)F)O2)CC1 [Example 179]
stdout: 1.62

stdin: Then this compound: N#Cc1ccc(OC[C@@H]2CN(c3ccc([N+](=O)[O-])c(C(F)(F)F)c3)[C@H](C(F)(F)F)O2)cc1 [Example 81]
stdout: 1.77

stdin: Then this compound: Cc1cc(N2C[C@@H](COc3ccc(C#N)cc3)O[C@@H]2C(F)(F)F)ccc1[N+](=O)[O-] [Example 53]
stdout: 0.40

stdin: Then this compound: Cc1cc(N2C[C@@H](COc3ccc(C#N)nc3)O[C@@H]2C(F)(F)F)ccc1[N+](=O)[O-] [Example 55]
stdout: 0.65

stdin: Then this compound: N#Cc1ccc(OC[C@@H]2CN(c3ccc([N+](=O)[O-])c(C(F)(F)F)c3)[C@@H](C(F)(F)F)O2)cn1 [Example 65]
stdout: 1.77

stdin: Then this compound: Cc1cc(N2C[C@@H](COc3ccncc3)O[C@@H]2C(F)(F)F)ccc1[N+](=O)[O-] [Example 69]
stdout: 0.19

stdin: Then this compound: Cc1cc(N2C[C@@H](COc3ccc(/C=N/O)cc3)O[C@@H]2C(F)(F)F)ccc1[N+](=O)[O-] [Example 70]
stdout: -0.21

stdin: Then this compound: O=[N+]([O-])c1ccc(N2C[C@@H](COc3ccc(/C=N/O)cc3)O[C@@H]2C(F)(F)F)cc1C(F)(F)F [Example 87]
stdout: 0.96

stdin: Then this compound: CC(=O)Nc1ccc(OC[C@@H]2CN(c3ccc([N+](=O)[O-])c(C)c3)[C@@H](C(F)(F)F)O2)cc1 [Example 54]
stdout: -0.07

Cited source: patent US9809583B2
